target: Cytochrome P450 2D6 (Homo sapiens); experiment: Cytochrome P450 family 2 subfamily D member 6 (CYP2D6) small molecule antagonists: luciferase biochemical (cell-free) qHTS assay (AID 1645840); settings: P450-Glo CYP2D6 enzyme, luciferin luminescence, 1 h; series mostly up to 57.4 µM; further: nearly all actives have a fitted effect of over 55% in size
Results filed as inconclusive are left out. Active and inactive are the calls of the source. The call rests on the fitted dose curve; in most records, active means well fitted inhibition curve with a large enough effect in the repeat runs; inconclusive means weak or mixed curves; inactive means flat fitted curve, though single readings scatter.
I would appreciate it if you answered using one of these outcomes: active, inactive

Solved cases (5 shown):
INSERT INTO assay_data (compound, target_under_test, group) VALUES
  ('O=C(CSc1nccn1Cc1ccc(F)cc1)Nc1nc2ccccc2s1', 'Cytochrome P450 2D6 (Homo sapiens)', 'active'),
  ('Cc1nc2c3ccccc3nc(NNC(=O)CCC(=O)N3CCN(c4ccccc4F)CC3)n2n1', 'Cytochrome P450 2D6 (Homo sapiens)', 'inactive'),
  ('CNS(=O)(=O)c1ccc(Cc2c(-c3cccc(-c4ccccc4)c3)[nH]n(-c3nc(C(=O)O)cs3)c2=O)cc1', 'Cytochrome P450 2D6 (Homo sapiens)', 'active'),
  ('COc1ccc(CNC(=O)C2CCCN(c3nnc(C)c4c(C)n(-c5ccc(C)cc5)nc34)C2)cc1 (stereo not drawn)', 'Cytochrome P450 2D6 (Homo sapiens)', 'active'),
  ('CC1=C(C(=O)Nc2cccc(CN)c2)C(c2ccccc2Cl)N=C(Nc2nc3ccccc3o2)N1 (stereo not drawn)', 'Cytochrome P450 2D6 (Homo sapiens)', 'active');

**Query** // outcome(item) with item = COC(=O)Cc1ccc(NC(=O)C2=C(C)NC(Nc3nc4ccccc4o3)=NC2c2ccccc2Cl)cc1 (stereo not drawn)
**Result** inactive

**Query** // outcome(item) with item = Cc1ccc(NC(=O)Cn2c(=O)n(CCC(=O)N3CCc4ccccc4C3)c(=O)c3ccccc32)c(C)c1
**Result** inactive

**Query** // outcome(item) with item = C#C[C@]1(O)CC[C@@H]2[C@@H]3CCC4=CCCC[C@@H]4[C@H]3C(=C)C[C@@]21CC
**Result** inactive

**Query** // outcome(item) with item = CCOC(=O)c1ccc(N2C(=O)c3n[nH]c(-c4ccco4)c3C2c2ccc(C)cc2)cc1 (stereo not drawn)
**Result** inactive

---

target: Cytochrome P450 2D6 (Homo sapiens); assay: Cytochrome P450 family 2 subfamily D member 6 (CYP2D6) small molecule antagonists: luciferase biochemical (cell-free) qHTS assay (AID 1645840); conditions: P450-Glo CYP2D6 enzyme, luciferin luminescence, 1 h; series mostly up to 57.4 µM; further: nearly all actives have a fitted effect of over 55% in size
Results filed as inconclusive are left out. Calls of active or inactive are those of the source. The call rests on the fitted dose curve; in most records, active means well fitted inhibition curve with a large enough effect in the repeat runs; inconclusive means weak or mixed curves; inactive means flat fitted curve, though single readings scatter.
I would appreciate it if you answered using one of these outcomes: 1 (active), -1 (inactive)

Solved cases (2 shown):
INSERT INTO results (compound, target_under_test, group) VALUES
  ('OC[C@H]1O[C@@H]2O[C@H]3[C@H](O)[C@@H](O)[C@@H](O[C@H]4[C@H](O)[C@@H](O)[C@@H](O[C@H]5[C@H](O)[C@@H](O)[C@@H](O[C@H]6[C@H](O)[C@@H](O)[C@@H](O[C@H]7[C@H](O)[C@@H](O)[C@@H](O[C@H]1[C@H](O)[C@@H]2O)O[C@@H]7CO)O[C@@H]6CO)O[C@@H]5CO)O[C@@H]4CO)O[C@@H]3CO', 'Cytochrome P450 2D6 (Homo sapiens)', -1),
  ('CCc1ccc(C(=O)c2cn(CC(=O)Nc3ccc(OC)c(OC)c3)c3ccc(C)cc3c2=O)cc1', 'Cytochrome P450 2D6 (Homo sapiens)', -1);

**Query** // outcome(item) with item = Cc1ccc([S+](=O)([O-])NC2CCC(C)(C)CC2)cc1
**Result** -1

**Query** // outcome(item) with item = Cc1ccc(-n2c(SCc3cccc(F)c3)nc3[nH]ncc3c2=O)cc1C
**Result** 1

The origin of these recorded values is PubChem BioAssay (NCATS).
